Where a name gives a salt, the structure may show the parent alone.
# melting point annotations
READOUT: melting point

* CN(C(=O)Cc1ccc(OCc2ccccc2)c(NS(C)(=O)=O)c1)[C@H](CN1CCCC1)c1ccccc1 (as salt: HCl) | 219 to 221 °C
* COc1cc(CC(=O)N(C)[C@H](CN2CCCC2)c2ccccc2)c(S(=O)(=O)N(C)Cc2ccccc2)cc1OC (as salt: HCl) [Example 148] | 188 to 189 °C
* CN(C(=O)Cc1ccccc1NS(C)(=O)=O)[C@@H]1CCCC[C@H]1N1CCCC1.Cl (racemic) | 229 to 231 °C
* CN(C(=O)Cc1cc2c(cc1S(=O)(=O)N(C)C)OCO2)[C@H](CN1CCCC1)c1ccccc1 (as salt: HCl) | 269 to 271 °C
* CN(C(=O)Cc1ccc(C(F)(F)F)cc1NC(=O)/C=C\C(=O)O)[C@H](CN1CCCC1)c1ccccc1 | 153 to 155 °C (dec.)
* Cl.Cl.O=C(O)CN1CCN(C(=O)Cc2ccc(Cl)c(Cl)c2)[C@H](CN2CCCC2)C1 [(R-3c)] | 190 °C (dec.)
* CCCCOC(=O)Nc1ccc(CC(=O)N(C)[C@H](CN2CCCC2)c2cccc([N+](=O)[O-])c2)cc1 (as salt: HCl) | 170 °C (dec.)

* * *

# TESTED_ON: cloned human kappa receptor (Homo sapiens)
# MEASUREMENT_NOTES: biochemical
# Assay type: binding
# TEST_SETTINGS: Table II; read-out: Ki (nM) k [3H] Diprenorphin
READOUT: Ki

- CN(C(=O)C(c1ccccc1)c1ccccc1)[C@H]1c2cc(O)ccc2CC[C@@H]1N1CCCC1 (racemic): 549 nM

* * *

# TESTED_ON: cloned human kappa receptor (Homo sapiens, UniProt P41145)
# Sequence (P41145 whole entry): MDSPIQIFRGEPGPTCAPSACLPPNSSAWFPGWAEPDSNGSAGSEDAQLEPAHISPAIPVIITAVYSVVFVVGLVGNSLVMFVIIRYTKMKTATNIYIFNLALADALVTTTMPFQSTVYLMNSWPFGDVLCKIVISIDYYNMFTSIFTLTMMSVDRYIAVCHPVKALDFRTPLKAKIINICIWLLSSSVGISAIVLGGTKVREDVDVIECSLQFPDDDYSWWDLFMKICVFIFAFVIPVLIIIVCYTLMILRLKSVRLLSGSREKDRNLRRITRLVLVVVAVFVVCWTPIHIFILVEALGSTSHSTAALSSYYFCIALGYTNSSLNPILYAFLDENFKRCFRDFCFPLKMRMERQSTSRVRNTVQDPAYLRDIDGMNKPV
# MEASUREMENT_NOTES: biochemical
# Assay type: binding
# TEST_SETTINGS: Ki (nM) [3H]-Diprenorphin κ
Counter-ions that a name gives are not always drawn.
# log10 Ki annotations
READOUT: log10 Ki (log10 of the value in nM)

- COc1cc(CC(=O)N(C)[C@H](CN2CC[C@H](O)C2)c2ccccc2)c(S(=O)(=O)N2CCN(C)CC2)cc1OC: 0.62
- CN(C(=O)Cc1ccc(S(C)(=O)=O)cc1)[C@H](CN1CCCC1)c1cccc(NS(C)(=O)=O)c1.CS(=O)(=O)O [Example 3e, methanesulfonate]: 0.51
- CN(C(=O)Cc1ccc(C(F)(F)F)cc1NC(=O)/C=C\C(=O)O)[C@H](CN1CCCC1)c1ccccc1: 0.23
- CCOP(=O)(Nc1cccc([C@@H](CN2CCCC2)N(C)C(=O)Cc2ccc(Cl)c(Cl)c2)c1)OCC [Example 3g, hydrochloride]: -0.92
- CNS(=O)(=O)c1cc(CC(=O)N(C)[C@H](CN2CCCC2)c2ccccc2)ccc1F.Cl [Example 3o, hydrochloride]: 1.48
- CN(C(=O)Cc1ccccc1NS(C)(=O)=O)C(CN1CCCC1)c1ccc(O)cc1 (racemic) [Example 129A]: 1.77
- CN(C(=O)Cc1ccc(O)c(NS(C)(=O)=O)c1)[C@H](CN1CCCC1)c1ccccc1: 0.75
- COc1ccc(CC(=O)N(C)[C@H](CN2CCCC2)c2ccccc2)cc1NS(C)(=O)=O: -0.10
- COc1cc(CC(=O)N(C)[C@H](CN2CCCC2)c2ccccc2)c(S(=O)(=O)N2CCOCC2)cc1OC: -0.25
- CN(C(=O)Cc1ccc(Cl)c(S(N)(=O)=O)c1)[C@H](CN1CCCC1)c1ccccc1.CS(=O)(=O)O [Example 3m, methanesulfonate]: 0.71
- COc1cccc(C(CN2CCCC2)N(C)C(=O)Cc2ccccc2NS(C)(=O)=O)c1 (racemic): 1.24
- CN(C(=O)Cc1ccccc1NS(C)(=O)=O)C(CN1CCCC1)c1cccc(O)c1 (racemic): 1.29
- CN(C(=O)Cc1ccc(OCc2ccccc2)c(NS(C)(=O)=O)c1)[C@H](CN1CCCC1)c1ccccc1: 1.37
- COc1cc(CC(=O)N(C)[C@H](CN2CCCC2)c2ccccc2)c(S(=O)(=O)N(C)Cc2ccccc2)cc1OC [Example 3xx, hydrochloride]: -0.08
- COC(=O)CNC(=O)c1ccccc1CC(=O)N(C)[C@H](CN1CCCC1)c1ccccc1 [Example 3mm, hydrochloride]: 1.21
- CNS(=O)(=O)c1cccc(CC(=O)N(C)[C@H](CN2CCCC2)c2ccccc2)c1.Cl [Example 3q, hydrochloride]: 0.51
